These entries and their values trace back to patent US11319306B2.

Assayed system: human V1a receptor (Homo sapiens, UniProt P37288)
Construct: host or cells: CHO cells (hV1a cell line)
Sequence (P37288 whole entry): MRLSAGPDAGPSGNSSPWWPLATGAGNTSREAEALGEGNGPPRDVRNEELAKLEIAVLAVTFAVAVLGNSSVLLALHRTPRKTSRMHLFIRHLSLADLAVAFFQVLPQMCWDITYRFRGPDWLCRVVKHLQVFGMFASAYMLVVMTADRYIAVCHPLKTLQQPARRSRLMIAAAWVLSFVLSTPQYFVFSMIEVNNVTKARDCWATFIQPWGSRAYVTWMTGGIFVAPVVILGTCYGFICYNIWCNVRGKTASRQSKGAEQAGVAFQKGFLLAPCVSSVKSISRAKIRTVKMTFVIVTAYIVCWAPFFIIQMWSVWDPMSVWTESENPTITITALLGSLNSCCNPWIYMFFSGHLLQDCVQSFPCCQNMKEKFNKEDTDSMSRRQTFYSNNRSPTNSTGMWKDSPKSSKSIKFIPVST
Experiment notes: Human vasopressin V1a receptor binding assay (3H-AVP competition, hV1a CHO cells)
Assay setup: 3H-AVP competition, CHO cells expressing human V1a; read-out: V1a Ki
Listed below: Ki values for each entry.

Compound	Unit	Ki
Cc1cccc(CN(C)C(=O)C(CCC(=O)N2CCN(C3CCCCC3)CC2)N2C(=O)C(N3C(=O)OCC3c3ccccc3)C2C=Cc2ccccc2)c1 (stereo not drawn) [Example 221A]	nM	1.66
O=C(NCc1cccc(C(F)(F)F)c1)C(C(=O)N1CCN(C2CCCCC2)CC1)N1C(=O)[C@@H](N2C(=O)OC[C@@H]2c2ccccc2)[C@H]1/C=C/c1ccccc1 (mixture of isomers)	nM	26.4
CCCN1CCN(C(=O)CCC(C(=O)NCc2cccc(C(F)(F)F)c2)N2C(=O)C(N3C(=O)OCC3c3ccccc3)C2C=Cc2ccccc2)CC1 (stereo not drawn) [Example 120B]	nM	1.79

====

Assayed system: human V1a receptor (Homo sapiens)
Construct: host or cells: CHO cells (hV1a cell line)
Experiment notes: Human vasopressin V1a receptor binding assay (3H-AVP competition, hV1a CHO cells)
Assay setup: 3H-AVP competition, CHO cells expressing human V1a; read-out: V1a Ki
# log10 of Ki per record follows
Endpoint label: log10 of Ki (log10 of the value in nM)

Compound	Assayed system	Measured result
CN(Cc1cccc(C(F)(F)F)c1)C(=O)[C@@H](CC(=O)N1CCC(N2CCCCC2)CC1)N1C(=O)[C@@H](N2C(=O)OC[C@@H]2c2ccccc2)[C@H]1/C=C/c1ccccc1	human V1a receptor (Homo sapiens)	-0.18
O=C(NCc1cccc(C(F)(F)F)c1)C(CCC(=O)N1CCC(CCN2CCCCC2)CC1)N1C(=O)C(N2C(=O)OCC2c2ccccc2)C1C=Cc1ccccc1 (stereo not drawn) [Example 120A]	human V1a receptor (Homo sapiens)	1.00
O=C(NC1CCCc2ccccc21)C(CCC(=O)N1CCCC1CN1CCCC1)N1C(=O)C(N2C(=O)OCC2c2ccccc2)C1C=Cc1ccccc1 (stereo not drawn) [Example 221Y]	human V1a receptor (Homo sapiens)	0.67
CC(NC(=O)C(CC(=O)N1CCC(N2CCCCC2)CC1)N1C(=O)C(N2C(=O)OCC2c2ccccc2)C1C=Cc1cccc(Cl)c1)c1ccccc1 (stereo not drawn)	human V1a receptor (Homo sapiens)	-1.14
O=C(NC1CCc2ccccc21)C(CCC(=O)N1CCN(C2CCCCC2)CC1)N1C(=O)C(N2C(=O)OCC2c2ccccc2)C1C=Cc1ccccc1 (stereo not drawn) [Example 221S]	human V1a receptor (Homo sapiens)	0.49
CC(NC(=O)C(CC(=O)N1CCC([N+]2([O-])CCCCC2)CC1)N1C(=O)C(N2C(=O)OCC2c2ccccc2)C1C=Cc1ccccc1)c1ccccc1 (stereo not drawn)	human V1a receptor (Homo sapiens)	0.04

====

Let's go through some recorded IC50 values for human V1a receptor (Homo sapiens, UniProt P37288) together.

Compound	IC50
CC(C)(C)OC(=O)NC1CCN(C2CCN(C(=O)CCC(C(=O)NC3(c4ccccc4)CCCC3)N3C(=O)C(N4C(=O)OCC4c4ccccc4)C3C=Cc3ccccc3)CC2)C1 (centres unmarked) [Example 221AX]	83 nM
O=C(NC1CCc2ccccc21)C(CCC(=O)N1CCN(C2CCCCC2)CC1)N1C(=O)C(N2C(=O)OCC2c2ccccc2)C1C=Cc1ccccc1 (centres unmarked) [Example 221S]	5.03 nM
N#Cc1cccc(/C=C/[C@@H]2[C@H](N3C(=O)OC[C@@H]3c3ccccc3)C(=O)N2[C@@H](CCC(=O)N2CCN(C3CCCCC3)CC2)C(=O)N[C@@H]2CCCc3ccccc32)c1	5.3 nM
CC(C)(C)OC(=O)C(C(=O)NCc1cccc(C(F)(F)F)c1)N1C(=O)C(N2C(=O)OCC2c2ccccc2)C1C=Cc1ccccc1 (centres unmarked)	35 nM
CC(C)(C)OC(=O)CC(C(=O)NCc1cccc(C(F)(F)F)c1)N1C(=O)C(N2C(=O)OCC2c2ccccc2)C1C=Cc1ccccc1 (centres unmarked)	35 nM

====

Assayed system: human V1a receptor (Homo sapiens)
Construct: host or cells: CHO cells (hV1a cell line)
Experiment notes: Human vasopressin V1a receptor binding assay (3H-AVP competition, hV1a CHO cells)
Assay setup: 3H-AVP competition, CHO cells expressing human V1a; read-out: V1a Ki
pKi: −log10 of the molar value.

Compound	pKi
CC(NC(=O)C(CC(=O)N1CCC(N2CCCCC2)CC1)N1C(=O)C(N2C(=O)OCC2c2ccccc2)C1C=Cc1cccc(Br)c1)c1ccccc1 (centres unmarked)	9.49
O=C(N[C@@H]1CCCc2ccccc21)[C@H](CCC(=O)N1CCN(C2CCCCC2)CC1)N1C(=O)[C@@H](N2C(=O)OC[C@@H]2c2ccccc2)[C@H]1/C=C/c1cccc(F)c1	9.17
O=C(CCC(C(=O)N1CCc2ccccc2C1)N1C(=O)C(N2C(=O)OCC2c2ccccc2)C1C=Cc1ccccc1)N1CCN(C2CCCCC2)CC1 (centres unmarked) [Example 221O]	8.29
O=C(NCc1cccc(C(F)(F)F)c1)C(C(=O)NC1CCN(Cc2ccccc2)CC1)N1C(=O)C(N2C(=O)OCC2c2ccccc2)C1C=Cc1ccccc1 (centres unmarked)	7.88
O=C(NC1(c2ccccc2)CCCC1)[C@H](CCC(=O)N1CCN(C2CCCCC2)CC1)N1C(=O)[C@@H](N2C(=O)OC[C@@H]2c2ccccc2)[C@H]1/C=C/c1cccc(Cl)c1	8.68
O=C(N[C@@H]1CCCc2ccccc21)[C@H](CCC(=O)N1CCN(C2CCCC2)CC1)N1C(=O)[C@@H](N2C(=O)OC[C@@H]2c2ccccc2)[C@H]1/C=C/c1ccccc1	8.91
O=C(C(COCc1ccccc1)N1C(=O)C(N2C(=O)OCC2c2ccccc2)C1C=Cc1ccccc1)N1CCN(C2CCCCC2)CC1 (centres unmarked) [Example 232D]	8.90
CCCCN1CCN(C(=O)C(C(=O)NCc2cccc(C(F)(F)F)c2)N2C(=O)C(N3C(=O)OCC3c3ccccc3)C2C=Cc2ccccc2)CC1 (centres unmarked)	8.19
O=C(NCc1cccc(C(F)(F)F)c1)C(CCC(=O)N1CCN(Cc2ccc3c(c2)OCO3)CC1)N1C(=O)C(N2C(=O)OCC2c2ccccc2)C1C=Cc1ccccc1 (centres unmarked)	8.58
CN(Cc1cccc(Br)c1)C(=O)C(CCC(=O)N1CCN(C2CCCCC2)CC1)N1C(=O)C(N2C(=O)OCC2c2ccccc2)C1C=Cc1ccccc1 (centres unmarked) [Example 221D]	8.83
O=C(CC(C(=O)NCc1cccc(C(F)(F)F)c1)N1C(=O)C(N2C(=O)OCC2c2ccccc2)C1C=Cc1ccccc1)NC1CCN(Cc2ccccc2)CC1 (centres unmarked) [Example 134C]	8.25

====

Assayed system: human V1a receptor (Homo sapiens, UniProt P37288)
Construct: host or cells: CHO cells (hV1a cell line)
Experiment notes: Human vasopressin V1a receptor binding assay (3H-AVP competition, hV1a CHO cells)
Assay setup: 3H-AVP competition, CHO cells expressing human V1a; read-out: V1a Ki
pKi: −log10 of the molar value.

Compound	pKi
O=C(N[C@@H]1CCCc2ccccc21)[C@H](CCC(=O)N1CCN(C2CCCCC2)CC1)N1C(=O)[C@@H](N2C(=O)OC[C@@H]2c2cccc(Cl)c2)[C@H]1/C=C/c1cccc(Cl)c1	9.52
O=C(NCc1cccc(C(F)(F)F)c1)C(CC(=O)N1CCC(N2CCCCC2)CC1)N1C(=O)C(N2C(=O)OCC2c2ccccc2)C1C=Cc1ccccc1 (centres unmarked) [Example 44]	8.72
O=C([C@@H](COCc1ccccc1)N1C(=O)[C@@H](N2C(=O)OC[C@@H]2c2ccccc2)[C@H]1/C=C/c1ccccc1)N1CCC(CN2CCCCC2)CC1 [Example 232E]	9.77
N#Cc1cccc(/C=C/[C@@H]2[C@H](N3C(=O)OC[C@@H]3c3ccccc3)C(=O)N2[C@@H](CCC(=O)N2CCN(C3CCCCC3)CC2)C(=O)N[C@@H]2CCCc3ccccc32)c1	8.48
O=C(NC(CCO)c1ccccc1)C(CCC(=O)N1CCN(C2CCCCC2)CC1)N1C(=O)C(N2C(=O)OCC2c2ccccc2)C1C=Cc1ccccc1 (centres unmarked) [Example 221Q]	7.95

====

Assayed system: human V1a receptor (Homo sapiens)
Construct: host or cells: CHO cells (hV1a cell line)
Experiment notes: Human vasopressin V1a receptor binding assay (3H-AVP competition, hV1a CHO cells)
Assay setup: 3H-AVP competition, CHO cells expressing human V1a; read-out: V1a Ki
pKi: −log10 of the molar value.

Molecule	pKi
COc1cccc(C(C)NC(=O)C(CCC(=O)N2CCN(C3CCCCC3)CC2)N2C(=O)C(N3C(=O)OCC3c3ccccc3)C2C=Cc2ccccc2)c1 (centres unmarked)	8.82
O=C(CCC(C(=O)NC1CCCc2ccccc21)N1C(=O)C(N2C(=O)OCC2c2ccccc2)C1C=Cc1ccccc1)NCCN1CCCCC1 (centres unmarked) [Example 221X]	8.14
CC(C)(C)OC(=O)NC1CCN(C2CCN(C(=O)CCC(C(=O)NC3(c4ccccc4)CCCC3)N3C(=O)C(N4C(=O)OCC4c4ccccc4)C3C=Cc3ccccc3)CC2)C1 (centres unmarked) [Example 221AX]	7.29
CC(C)N1CCN(C(=O)C(C(=O)NCc2cccc(C(F)(F)F)c2)N2C(=O)[C@@H](N3C(=O)OC[C@@H]3c3ccccc3)[C@H]2/C=C/c2ccccc2)CC1 (mixture of isomers)	7.74
O=C(NCc1cccc(C(F)(F)F)c1)C(CC(=O)N1CCC(N2CCCCC2)CC1)N1C(=O)C(N2C(=O)OCC2c2ccccc2)C1C=Cc1ccccc1 (centres unmarked) [Example 133]	8.83
